Each recorded value in this set is attributed to patent US8227422B2.

# target.or.system: TPO receptor (Homo sapiens, UniProt P40238)
# Sequence (P40238 26-635): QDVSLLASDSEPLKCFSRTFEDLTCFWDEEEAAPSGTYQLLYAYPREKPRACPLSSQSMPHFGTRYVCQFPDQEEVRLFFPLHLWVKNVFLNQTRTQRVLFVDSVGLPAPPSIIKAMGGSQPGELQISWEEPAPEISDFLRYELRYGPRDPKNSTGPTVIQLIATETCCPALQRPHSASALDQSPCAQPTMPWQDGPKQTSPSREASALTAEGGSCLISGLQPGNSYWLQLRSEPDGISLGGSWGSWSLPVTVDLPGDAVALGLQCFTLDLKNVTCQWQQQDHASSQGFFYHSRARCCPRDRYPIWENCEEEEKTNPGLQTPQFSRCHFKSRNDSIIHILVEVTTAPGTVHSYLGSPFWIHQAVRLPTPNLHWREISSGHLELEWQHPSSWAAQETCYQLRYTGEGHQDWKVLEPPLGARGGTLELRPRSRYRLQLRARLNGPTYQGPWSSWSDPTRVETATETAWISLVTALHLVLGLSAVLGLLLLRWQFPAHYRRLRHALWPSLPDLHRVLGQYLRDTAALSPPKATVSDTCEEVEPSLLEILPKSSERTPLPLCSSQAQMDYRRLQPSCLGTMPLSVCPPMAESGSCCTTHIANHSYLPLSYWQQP
# procedure.summary: Microphysiometer assay: rate of acidification of extracellular medium on TPO receptor stimulation
# Type: cell-based
# conditions: Table 4, cyclized compounds; microphysiometer; read-out: EC50 (nM) Microonys
Where a SMILES comes first, the peptide text is derived from it.
Consider the following compounds and their measured EC50 readings.

compound: CC[C@H](C)[C@@H]1NC(=O)[C@H](Cc2c[nH]c3ccccc23)NC(=O)[C@H](CCC(=O)O)NC(=O)[C@H](CCCNC(=N)N)NC(=O)[C@H](CC(C)C)NC(=O)[C@H]([C@@H](C)O)NC(=O)[C@@H]2CCCN2C(=O)CNC(=O)[C@H](CC(=O)O)NC(=O)[C@H](C)NC(=O)[C@H](N)C(C)(C)SSC[C@H](C(N)=O)NC(=O)[C@H](Cc2ccccc2)NC(=O)[C@H](CO)NC1=O (HELM PEPTIDE1{[CC(C)(S[*:3])[C@@H](N)C(=O)[*:2]].A.D.G.P.T.L.R.E.W.I.S.F.[dC].[am]}$PEPTIDE1,PEPTIDE1,1:R3-14:R3$$$V2.0)
EC50: < 200000 nM

compound: CC[C@H](C)[C@@H]1NC(=O)[C@H](Cc2c[nH]c3ccccc23)NC(=O)[C@H](CCC(=O)O)NC(=O)[C@H](CCCNC(=N)N)NC(=O)[C@H](CC(C)C)NC(=O)[C@H]([C@@H](C)O)NC(=O)[C@@H]2CCCN2C(=O)CNC(=O)[C@H](CC(=O)O)NC(=O)[C@H](C)NC(=O)[C@@H](N)C(C)(C)SSC[C@@H](C(N)=O)NC(=O)[C@H](Cc2ccccc2)NC(=O)[C@H](CO)NC1=O (HELM PEPTIDE1{[Pen].A.D.G.P.T.L.R.E.W.I.S.F.C.[am]}$PEPTIDE1,PEPTIDE1,1:R3-14:R3$$$V2.0)
EC50: < 500 nM

compound: CC[C@H](C)[C@@H]1NC(=O)[C@H](Cc2c[nH]c3ccccc23)NC(=O)[C@H](CCC(=O)O)NC(=O)[C@H](CCCNC(=N)N)NC(=O)[C@H](CC(C)C)NC(=O)[C@H]([C@@H](C)O)NC(=O)[C@@H]2CCCN2C(=O)CNC(=O)[C@H](CC(=O)O)NC(=O)[C@H](C)NC(=O)[C@@H](N)CCSSC[C@@H](C(N)=O)NC(=O)[C@H](Cc2ccccc2)NC(=O)[C@H](CO)NC1=O (HELM PEPTIDE1{[N[C@@H](CCS[*:3])C(=O)[*:2]].A.D.G.P.T.L.R.E.W.I.S.F.C.[am]}$PEPTIDE1,PEPTIDE1,1:R3-14:R3$$$V2.0)
EC50: < 500 nM

compound: CC[C@H](C)[C@@H]1NC(=O)[C@H](Cc2c[nH]c3ccccc23)NC(=O)[C@H](CCC(=O)O)NC(=O)[C@H](CCCNC(=N)N)NC(=O)[C@H](CC(C)C)NC(=O)[C@H]([C@@H](C)O)NC(=O)[C@@H]2CCCN2C(=O)CNC(=O)[C@H](CC(=O)O)NC(=O)[C@H](C)NC(=O)[C@@H](N)CSSC[C@H](C(N)=O)NC(=O)[C@H](Cc2ccccc2)NC(=O)[C@H](CO)NC1=O (HELM PEPTIDE1{C.A.D.G.P.T.L.R.E.W.I.S.F.[dC].[am]}$PEPTIDE1,PEPTIDE1,1:R3-14:R3$$$V2.0)
EC50: < 200000 nM

compound: CCCC1SC[C@@H](C(N)=O)NC(=O)[C@H](Cc2ccccc2)NC(=O)[C@H](CO)NC(=O)[C@H]([C@@H](C)CC)NC(=O)[C@H](Cc2c[nH]c3ccccc23)NC(=O)[C@H](CCC(=O)O)NC(=O)[C@H](CCCNC(=N)N)NC(=O)[C@H](CC(C)C)NC(=O)[C@H]([C@@H](C)O)NC(=O)[C@@H]2CCCN2C(=O)CNC(=O)[C@H](CC(=O)O)NC(=O)[C@H](C)NC1=O (some centres unmarked) (HELM PEPTIDE1{A.D.G.P.T.L.R.E.W.I.S.F.C.[am]}|CHEM1{[CCCC(C(=O)[*:1])[*:2]]}$PEPTIDE1,CHEM1,1:R1-1:R1|PEPTIDE1,CHEM1,13:R3-1:R2$$$V2.0)
EC50: < 200000 nM

compound: CC[C@H](C)[C@@H]1NC(=O)[C@H](Cc2c[nH]c3ccccc23)NC(=O)[C@H](CCC(=O)O)NC(=O)[C@H](CCCNC(=N)N)NC(=O)[C@H](CC(C)C)NC(=O)[C@H]([C@@H](C)O)NC(=O)[C@@H]2CCCN2C(=O)CNC(=O)[C@H](CC(=O)O)NC(=O)[C@H](C)NC(=O)[C@H](N)CSSC[C@H](C(N)=O)NC(=O)[C@H](Cc2ccccc2)NC(=O)[C@H](CO)NC1=O (HELM PEPTIDE1{[dC].A.D.G.P.T.L.R.E.W.I.S.F.[dC].[am]}$PEPTIDE1,PEPTIDE1,1:R3-14:R3$$$V2.0)
EC50: < 200000 nM

compound: CC[C@H](C)[C@@H]1NC(=O)[C@H](Cc2c[nH]c3ccccc23)NC(=O)[C@H](CCC(=O)O)NC(=O)[C@H](CCCNC(=N)N)NC(=O)[C@H](CC(C)C)NC(=O)[C@H]([C@@H](C)O)NC(=O)[C@@H]2CCCN2C(=O)CNC(=O)[C@H](CC(=O)O)NC(=O)[C@H](C)NC(=O)[C@@H](N)C(C)(C)SSC(C)(C)[C@@H](C(N)=O)NC(=O)[C@H](Cc2ccccc2)NC(=O)[C@H](CO)NC1=O (HELM PEPTIDE1{[Pen].A.D.G.P.T.L.R.E.W.I.S.F.[Pen].[am]}$PEPTIDE1,PEPTIDE1,1:R3-14:R3$$$V2.0)
EC50: < 200000 nM

compound: CC[C@H](C)[C@@H]1NC(=O)[C@H](Cc2c[nH]c3ccccc23)NC(=O)[C@H](CCC(=O)O)NC(=O)[C@H](CCCNC(=N)N)NC(=O)[C@H](CC(C)C)NC(=O)[C@H]([C@@H](C)O)NC(=O)[C@@H]2CCCN2C(=O)CNC(=O)[C@H](CC(=O)O)NC(=O)[C@H](C)NC(=O)CSCC[C@@H](C(N)=O)NC(=O)[C@H](Cc2ccccc2)NC(=O)[C@H](CO)NC1=O (HELM PEPTIDE1{[O=C(C[*:3])[*:2]].A.D.G.P.T.L.R.E.W.I.S.F.[O=C([C@H](CCS[*:3])N[*:1])[*:2]].[am]}$PEPTIDE1,PEPTIDE1,1:R3-14:R3$$$V2.0)
EC50: < 200000 nM
